Provide the reported pIC50 of each item.
System: CN0375-F725-PDC KRAS spheroid viability
Assay: Anticancer human tumor CN0375-F725-PDC patient-derived colon carcinoma cell line growth inhibition [KRAS2]
Conditions: curve of first compound; second compound 1 µM; spheroids with HUVEC and MSC
pIC50: −log10 of the molar value.

>  <molecule>
COC(=O)c1ccc2c(C(=Nc3ccc(N(C)C(=O)CN4CCN(C)CC4)cc3)c3ccccc3)c(O)[nH]c2c1 + CNCc1ccccc1-c1csc(C(C)Nc2nc(C)nc3cc(OC)c(OC)cc23)c1

>  <pIC50>
5.42

$$$$

Please look at the items below and tell me pIC50 for each one, in order.
1. CCN1CCN(Cc2ccc(Nc3ncc(F)c(-c4cc(F)c5nc(C)n(C(C)C)c5c4)n3)nc2)CC1 + C=CC(=O)N1CCN(c2nc(=O)n(-c3c(C)ccnc3C(C)C)c3nc(-c4c(O)cccc4F)c(F)cc23)C(C)C1
2. CC1COCCN1c1cc(-c2ccnn2C)c2ccnc(-c3ccn[nH]3)c2n1 (stereo unspecified) + COc1cc2nc(C)nc(NC(C)c3cc(N)cc(C(F)(F)F)c3)c2cc1OC1CCOC1
3. CC(=O)Nc1cccc(-n2c(=O)n(C3CC3)c(=O)c3c(Nc4ccc(I)cc4F)n(C)c(=O)c(C)c32)c1 + CC1OCC2(CCN(c3cnc(Sc4ccnc(N)c4Cl)c(N)n3)CC2)C1N
4. Cn1ncnc1[C@H]1c2n[nH]c(=O)c3cc(F)cc(c23)N[C@@H]1c1ccc(F)cc1 + CC1OCC2(CCN(c3cnc(Sc4ccnc(N)c4Cl)c(N)n3)CC2)C1N
5. CC1COCCN1c1cc(-c2ccnn2C)c2ccnc(-c3ccn[nH]3)c2n1 (stereo unspecified) + CC1OCC2(CCN(c3cnc(Sc4ccnc(N)c4Cl)c(N)n3)CC2)C1N
6. O=C(c1cc(Cc2n[nH]c(=O)c3ccccc23)ccc1F)N1CCN(C(=O)C2CC2)CC1 + C=CC(=O)N1CCN(c2nc(=O)n(-c3c(C)ccnc3C(C)C)c3nc(-c4c(O)cccc4F)c(F)cc23)C(C)C1
7. CC(=O)OC12COC1CC(O)C1(C)C(=O)C(O)C3=C(C)C(OC(=O)C(O)C(NC(=O)OC(C)(C)C)c4ccccc4)CC(O)(C(OC(=O)c4ccccc4)C21)C3(C)C (stereo unspecified) + CNCc1ccccc1-c1csc(C(C)Nc2nc(C)nc3cc(OC)c(OC)cc23)c1
8. Cn1ncnc1[C@H]1c2n[nH]c(=O)c3cc(F)cc(c23)N[C@@H]1c1ccc(F)cc1 + C=CC(=O)N1CCN(c2nc(=O)n(-c3c(C)ccnc3C(C)C)c3nc(-c4c(O)cccc4F)c(F)cc23)C(C)C1

1. < 6.00
2. < 5.50
3. 8.79
4. < 7.00
5. < 5.50
6. < 5.00
7. < 5.50
8. < 7.00

Please look at the items below and tell me pIC50 for each one, in order.
1. Cn1ncnc1[C@H]1c2n[nH]c(=O)c3cc(F)cc(c23)N[C@@H]1c1ccc(F)cc1 + CNCc1ccccc1-c1csc(C(C)Nc2nc(C)nc3cc(OC)c(OC)cc23)c1
2. CC1OCC2(CCN(c3cnc(Sc4ccnc(N)c4Cl)c(N)n3)CC2)C1N (stereo unspecified) + CNCc1ccccc1-c1csc(C(C)Nc2nc(C)nc3cc(OC)c(OC)cc23)c1

1: 9.20; 2: 6.82

* * *

Test system: CN0375-F725-PDC KRAS spheroid viability
Assay: Anticancer human tumor CN0375-F725-PDC cell line growth inhibition [KRAS2];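 also: spheroids exposed to agents for 7 days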
Conditions: second compound 0.316 µM; first compound 0.00316 µM; stronger effect = lower value; spheroids with HUVEC and MSC
measureName: viability, T/C (%)
Give bare numbers, in %.

>  <compound>
CC(C)n1nc(-c2ccc3oc(N)nc3c2)c2c(N)ncnc21 + CC1OCC2(CCN(c3cnc(Sc4ccnc(N)c4Cl)c(N)n3)CC2)C1N

>  <measureName>
viability, T/C

>  <valueObserved>
73.1

$$$$
>  <compound>
CC(C)n1nc(-c2ccc3oc(N)nc3c2)c2c(N)ncnc21 + CNCc1ccccc1-c1csc(C(C)Nc2nc(C)nc3cc(OC)c(OC)cc23)c1

>  <measureName>
viability, T/C

>  <valueObserved>
78.5

$$$$

The record that follows has no viability, T/C shown yet.
What viability, T/C value was documented for this compound, CC(=O)Nc1cccc(-n2c(=O)n(C3CC3)c(=O)c3c(Nc4ccc(I)cc4F)n(C)c(=O)c(C)c32)c1 + COc1cc2nc(C)nc(NC(C)c3cc(N)cc(C(F)(F)F)c3)c2cc1OC1CCOC1 ? 49.7

* * *

Provide the reported viability, T/C of each item.
Test system: CN0375-F725-PDC KRAS spheroid viability
Assay: Anticancer human tumor CN0375-F725-PDC cell line growth inhibition [KRAS2];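 also: spheroids exposed to agents for 7 days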
Settings: second compound 1 µM; first compound 0.01 µM; stronger effect = lower value; spheroids with HUVEC and MSC
Answers are plain numbers, in %.

>  <compound>
CN(C)C/C=C/C(=O)Nc1cc2c(Nc3ccc(F)c(Cl)c3)ncnc2cc1O[C@H]1CCOC1 + C=CC(=O)N1CCN(c2nc(OCC3CCCN3C)nc3c2CCN(c2cccc4cccc(C)c24)C3)CC1CC#N

>  <unitSymbol>
%

>  <viability, T/C>
75.9

$$$$
>  <compound>
CC(C)n1nc(-c2ccc3oc(N)nc3c2)c2c(N)ncnc21 + C=CC(=O)N1CCN(c2nc(=O)n(-c3c(C)ccnc3C(C)C)c3nc(-c4c(O)cccc4F)c(F)cc23)C(C)C1

>  <unitSymbol>
%

>  <viability, T/C>
64.8

$$$$
>  <compound>
CCN1CCN(Cc2ccc(Nc3ncc(F)c(-c4cc(F)c5nc(C)n(C(C)C)c5c4)n3)nc2)CC1 + COc1cc2nc(C)nc(NC(C)c3cc(N)cc(C(F)(F)F)c3)c2cc1OC1CCOC1

>  <unitSymbol>
%

>  <viability, T/C>
85.3

$$$$

Please look at the items below and tell me viability, T/C for each one, in order.
1. CCN1CCN(Cc2ccc(Nc3ncc(F)c(-c4cc(F)c5nc(C)n(C(C)C)c5c4)n3)nc2)CC1 + CNCc1ccccc1-c1csc(C(C)Nc2nc(C)nc3cc(OC)c(OC)cc23)c1
2. CC1COCCN1c1cc(-c2ccnn2C)c2ccnc(-c3ccn[nH]3)c2n1 (stereo not given) + COc1cc2nc(C)nc(NC(C)c3cc(N)cc(C(F)(F)F)c3)c2cc1OC1CCOC1

[65.7, 101]

* * *

System: CN0375-F725-PDC KRAS spheroid viability
Assay: Anticancer human tumor CN0375-F725-PDC cell line growth inhibition [KRAS2];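 also: spheroids exposed to agents for 7 days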
Details: second compound 1 µM; first compound 0.0001 µM; stronger effect = lower value; spheroids with HUVEC and MSC
measureName: viability, T/C (%)
One number for each entry, in %.

Reference set (4 entries):
>  <molecule>
CC(=O)Nc1cccc(-n2c(=O)n(C3CC3)c(=O)c3c(Nc4ccc(I)cc4F)n(C)c(=O)c(C)c32)c1 + COc1cc2nc(C)nc(NC(C)c3cc(N)cc(C(F)(F)F)c3)c2cc1OC1CCOC1

>  <viability, T/C [%]>
82.6

$$$$
>  <molecule>
CC(=O)Nc1cccc(-n2c(=O)n(C3CC3)c(=O)c3c(Nc4ccc(I)cc4F)n(C)c(=O)c(C)c32)c1 + CC1OCC2(CCN(c3cnc(Sc4ccnc(N)c4Cl)c(N)n3)CC2)C1N

>  <viability, T/C [%]>
78.4

$$$$
>  <molecule>
CC(=O)Nc1cccc(-n2c(=O)n(C3CC3)c(=O)c3c(Nc4ccc(I)cc4F)n(C)c(=O)c(C)c32)c1 + C=CC(=O)N1CCN(c2nc(=O)n(-c3c(C)ccnc3C(C)C)c3nc(-c4c(O)cccc4F)c(F)cc23)C(C)C1

>  <viability, T/C [%]>
98.1

$$$$
>  <molecule>
CC(=O)Nc1cccc(-n2c(=O)n(C3CC3)c(=O)c3c(Nc4ccc(I)cc4F)n(C)c(=O)c(C)c32)c1 + CNCc1ccccc1-c1csc(C(C)Nc2nc(C)nc3cc(OC)c(OC)cc23)c1

>  <viability, T/C [%]>
45.4

$$$$

The record that follows has no viability, T/C shown yet.
What viability, T/C value was documented for this molecule, CC(=O)Nc1cccc(-n2c(=O)n(C3CC3)c(=O)c3c(Nc4ccc(I)cc4F)n(C)c(=O)c(C)c32)c1 + C=CC(=O)N1CCN(c2nc(OCC3CCCN3C)nc3c2CCN(c2cccc4cccc(C)c24)C3)CC1CC#N ? 81.9

* * *

Test system: CN0375-F725-PDC KRAS spheroid viability
Assay: Anticancer human tumor CN0375-F725-PDC cell line growth inhibition [KRAS2];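 also: spheroids exposed to agents for 7 days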
Conditions: second compound 0.316 µM; first compound 0.1 µM; stronger effect = lower value; spheroids with HUVEC and MSC
measureName: viability, T/C (%)
Numbers only, in %.

Reference set (2 entries):
>  <compound>
O=C(c1cc(Cc2n[nH]c(=O)c3ccccc23)ccc1F)N1CCN(C(=O)C2CC2)CC1 + CC1OCC2(CCN(c3cnc(Sc4ccnc(N)c4Cl)c(N)n3)CC2)C1N

>  <valueObserved>
93.9

$$$$
>  <compound>
CC(C)n1nc(-c2ccc3oc(N)nc3c2)c2c(N)ncnc21 + C=CC(=O)N1CCN(c2nc(OCC3CCCN3C)nc3c2CCN(c2cccc4cccc(C)c24)C3)CC1CC#N

>  <valueObserved>
45

$$$$

What viability, T/C value was documented for this compound, CN(C)C/C=C/C(=O)Nc1cc2c(Nc3ccc(F)c(Cl)c3)ncnc2cc1O[C@H]1CCOC1 + CC1OCC2(CCN(c3cnc(Sc4ccnc(N)c4Cl)c(N)n3)CC2)C1N ? 75.7
